The measurements presented in this section are drawn from patent US12077503B2.

System: ryegrass, Italian (Italian ryegrass, Lolium multiflorum)
Experiment: Test A preemergence
Format: in vivo
Settings: Lolium multiflorum, pre-emergence, 240 h, 500 g ai/ha, Preemergence, visual injury vs untreated controls after approximately 10 d; read-out: Ryegrass, Italian plant response rating (0 to 100 scale where 0 is no effect and 100 is complete control)
readout name: pest or weed control at 500 g/ha (%)
Answers are plain numbers, in %.

Known pest or weed control at 500 g/ha results, listed for orientation:
CN1CC[C@H](c2cccc(Cl)c2)[C@@H](C(=O)Nc2ccccc2S(C)(=O)=O)C1=O [Compound 923] : 0
COc1c(F)ccc([C@H]2CN(C)C(=O)[C@@H]2C(=O)Nc2ccccc2F)c1Cl [Compound 892] : 90
Cc1cc(C)cc([C@H]2CNC(=O)[C@@H]2C(=O)Nc2ccccc2F)c1 [Compound 888] : 60
CN1C[C@H](c2cccc(COC(F)F)c2)[C@@H](C(=O)Nc2cccc(F)c2F)C1=O [Compound 873] : 80
CN1C[C@H](c2cccc(OC(F)(F)C(F)F)c2)[C@@H](C(=O)Nc2ccccc2S(C)(=O)=O)C1=O [Compound 864] : 50

Report pest or weed control at 500 g/ha for each item below.
1. CN1C[C@H](c2cc(F)c(F)c(F)c2)[C@@H](C(=O)Nc2ccccc2S(C)(=O)=O)C1=O [Compound 880]
2. CN1C[C@H](c2cc(F)c(C(F)(F)F)c(F)c2)[C@@H](C(=O)Nc2ccccc2F)C1=O [Compound 899]
3. CN1CC[C@H](c2cccc(Cl)c2)[C@@H](C(=O)Nc2ccccc2F)C1=O [Compound 922]

OUT:
[70, 20, 40]
